tested on: RERF-LC-KJ; experiment: relative viability (nuclei count vs DMSO), 5 days (fraction); higher = more cells survive; conditions: first compound 0.1581 µM
Consider the cut-off 0.4. If the recorded relative viability is strictly smaller, the label is Criterion met; if not, the label is Criterion not met.

{"columns": ["compound", "group"],
 "data": [
  ["Nc1ccn([C@@H]2O[C@H](CO)[C@@H](O)[C@@H]2O)c(=O)n1 [Cytarabine] + CCNC(=O)c1noc(-c2cc(C(C)C)c(O)cc2O)c1-c1ccc(CN2CCOCC2)cc1 [Luminespib] (partner 0.01 µM)", "Criterion met"],
  ["COc1cc2nccc(Oc3ccc(NC(=O)Nc4cc(C)on4)c(Cl)c3)c2cc1OC [Tivozanib] + C[C@@H](Oc1cc(-c2cnn(C3CCNCC3)c2)cnc1N)c1c(Cl)ccc(F)c1Cl [Crizotinib] (partner 1 µM)", "Criterion not met"],
  ["Nc1ccn([C@@H]2O[C@H](CO)[C@@H](O)[C@@H]2O)c(=O)n1 [Cytarabine] + O=C(CCCCCCC(=O)Nc1ccccc1)NO [Vorinostat] (partner 1 µM)", "Criterion not met"],
  ["Nc1ccn([C@@H]2O[C@H](CO)[C@@H](O)[C@@H]2O)c(=O)n1 [Cytarabine] + Nc1ncn([C@H]2C[C@H](O)[C@@H](CO)O2)c(=O)n1 [Decitabine] (partner 2 µM)", "Criterion met"],
  ["Nc1ccn([C@@H]2O[C@H](CO)[C@@H](O)[C@@H]2O)c(=O)n1 [Cytarabine] + CC(=O)c1c(C)c2cnc(Nc3ccc(N4CCNCC4)cn3)nc2n(C2CCCC2)c1=O [Palbociclib] (partner 0.5 µM)", "Criterion not met"]
]}

====

test system: HCC-44; experiment: relative viability (nuclei count vs DMSO), 5 days (fraction); higher = more cells survive; conditions: first compound 0.08 µM
property: relative viability

{"columns": ["compound", "testedSystem", "property", "numericResult"],
 "data": [
  ["Cc1cnc(-c2cnc(NCCNc3ccc(C#N)cn3)nc2-c2ccc(Cl)cc2Cl)[nH]1 + CS(=O)(=O)N1CCN(Cc2cc3nc(-c4cccc5[nH]ncc45)nc(N4CCOCC4)c3s2)CC1 [Pictilisib] (partner 1 µM)", "HCC-44", "relative viability", 0.706],
  ["Cc1cnc(-c2cnc(NCCNc3ccc(C#N)cn3)nc2-c2ccc(Cl)cc2Cl)[nH]1 + O=C(c1cc(Cc2n[nH]c(=O)c3ccccc23)ccc1F)N1CCN(C(=O)C2CC2)CC1 [Olaparib] (partner 8 µM)", "HCC-44", "relative viability", 0.934],
  ["Cc1cnc(-c2cnc(NCCNc3ccc(C#N)cn3)nc2-c2ccc(Cl)cc2Cl)[nH]1 + O=C(CCCCCCC(=O)Nc1ccccc1)NO [Vorinostat] (partner 1 µM)", "HCC-44", "relative viability", 1.05]
]}

====

system: HCC-827; assay: relative viability (nuclei count vs DMSO), 5 days (fraction); higher = more cells survive; details: first compound 0.02 µM

{"columns": ["molecule", "relative viability"],
 "data": [
  ["CC(=O)O[C@@]12CO[C@@H]1C[C@H](O)[C@@]1(C)C(=O)[C@H](O)C3=C(C)[C@@H](OC(=O)[C@H](O)[C@@H](NC(=O)OC(C)(C)C)c4ccccc4)C[C@@](O)([C@@H](OC(=O)c4ccccc4)[C@H]21)C3(C)C [Docetaxel] + C[C@]1(O)C[C@@H](c2nc(-c3ccc4ccc(-c5ccccc5)nc4c3)c3c(N)nccn32)C1 [Linsitinib] (partner 1 µM)", 0.347],
  ["CC(=O)O[C@@]12CO[C@@H]1C[C@H](O)[C@@]1(C)C(=O)[C@H](O)C3=C(C)[C@@H](OC(=O)[C@H](O)[C@@H](NC(=O)OC(C)(C)C)c4ccccc4)C[C@@](O)([C@@H](OC(=O)c4ccccc4)[C@H]21)C3(C)C [Docetaxel] + Cc1cc(Nc2cc(N3CCN(C)CC3)nc(Sc3ccc(NC(=O)C4CC4)cc3)n2)n[nH]1 [Tozasertib] (partner 0.1 µM)", 0.295]
]}

====

system: HCC-44; assay: relative viability (nuclei count vs DMSO), 5 days (fraction); higher = more cells survive; settings: first compound 0.04 µM
Consider the cut-off 0.9. If the recorded relative viability is strictly smaller, the label is met; if not, the label is not met.

{"columns": ["compound", "group"],
 "data": [
  ["Cc1sc2c(c1C)C(c1ccc(Cl)cc1)=N[C@@H](CC(=O)OC(C)(C)C)c1nnc(C)n1-2 [JQ1] + CC(C)C[C@H](NC(=O)[C@H](Cc1ccccc1)NC(=O)c1cnccn1)B(O)O [Bortezomib] (partner 0.002 µM)", "not met"],
  ["Cc1sc2c(c1C)C(c1ccc(Cl)cc1)=N[C@@H](CC(=O)OC(C)(C)C)c1nnc(C)n1-2 [JQ1] + COc1cccc2cc(-c3nc([C@H]4CC[C@H](C(=O)O)CC4)n4ncnc(N)c34)[nH]c12 [OSI-027] (partner 0.5 µM)", "met"],
  ["Cc1sc2c(c1C)C(c1ccc(Cl)cc1)=N[C@@H](CC(=O)OC(C)(C)C)c1nnc(C)n1-2 [JQ1] + CCNC(=O)c1noc(-c2cc(C(C)C)c(O)cc2O)c1-c1ccc(CN2CCOCC2)cc1 [Luminespib] (partner 0.01 µM)", "not met"],
  ["Cc1sc2c(c1C)C(c1ccc(Cl)cc1)=N[C@@H](CC(=O)OC(C)(C)C)c1nnc(C)n1-2 [JQ1] + C[C@]1(O)C[C@@H](c2nc(-c3ccc4ccc(-c5ccccc5)nc4c3)c3c(N)nccn32)C1 [Linsitinib] (partner 1 µM)", "met"],
  ["Cc1sc2c(c1C)C(c1ccc(Cl)cc1)=N[C@@H](CC(=O)OC(C)(C)C)c1nnc(C)n1-2 [JQ1] + C[C@@H](Oc1cc(-c2cnn(C3CCNCC3)c2)cnc1N)c1c(Cl)ccc(F)c1Cl [Crizotinib] (partner 1 µM)", "met"]
]}

====

Quick reference: relative viability of the listed items.
test system: SK-LU-1; test: relative viability (nuclei count vs DMSO), 5 days (fraction); higher = more cells survive; settings: first compound 0.8 µM
property: relative viability

{"columns": ["molecule", "result"],
 "data": [
  ["Cc1cnc(-c2cnc(NCCNc3ccc(C#N)cn3)nc2-c2ccc(Cl)cc2Cl)[nH]1 + O=C(CCCCCCC(=O)Nc1ccccc1)NO [Vorinostat] (partner 1 µM)", 0.849],
  ["Cc1cnc(-c2cnc(NCCNc3ccc(C#N)cn3)nc2-c2ccc(Cl)cc2Cl)[nH]1 + CC(=O)c1c(C)c2cnc(Nc3ccc(N4CCNCC4)cn3)nc2n(C2CCCC2)c1=O [Palbociclib] (partner 0.5 µM)", 0.337],
  ["Cc1cnc(-c2cnc(NCCNc3ccc(C#N)cn3)nc2-c2ccc(Cl)cc2Cl)[nH]1 + CS(=O)(=O)N1CCN(Cc2cc3nc(-c4cccc5[nH]ncc45)nc(N4CCOCC4)c3s2)CC1 [Pictilisib] (partner 1 µM)", 0.623],
  ["O=c1[nH]c2ccccc2n1C1CCN(CCCC(c2ccc(F)cc2)c2ccc(F)cc2)CC1 [Pimozide] + CC(=O)c1c(C)c2cnc(Nc3ccc(N4CCNCC4)cn3)nc2n(C2CCCC2)c1=O [Palbociclib] (partner 0.5 µM)", 0.404],
  ["Cc1cnc(-c2cnc(NCCNc3ccc(C#N)cn3)nc2-c2ccc(Cl)cc2Cl)[nH]1 + CC1(C)CCC(c2ccc(Cl)cc2)=C(CN2CCN(c3ccc(C(=O)NS(=O)(=O)c4ccc(N[C@H](CCN5CCOCC5)CSc5ccccc5)c(S(=O)(=O)C(F)(F)F)c4)cc3)CC2)C1 [Navitoclax] (partner 0.5 µM)", 1.2],
  ["O=c1[nH]c2ccccc2n1C1CCN(CCCC(c2ccc(F)cc2)c2ccc(F)cc2)CC1 [Pimozide] + O=C(CCCCCCC(=O)Nc1ccccc1)NO [Vorinostat] (partner 1 µM)", 0.501],
  ["O=c1[nH]c2ccccc2n1C1CCN(CCCC(c2ccc(F)cc2)c2ccc(F)cc2)CC1 [Pimozide] + COc1cccc2cc(-c3nc([C@H]4CC[C@H](C(=O)O)CC4)n4ncnc(N)c34)[nH]c12 [OSI-027] (partner 0.5 µM)", 0.285],
  ["Cc1cnc(-c2cnc(NCCNc3ccc(C#N)cn3)nc2-c2ccc(Cl)cc2Cl)[nH]1 + C[C@@H](Oc1cc(-c2cnn(C3CCNCC3)c2)cnc1N)c1c(Cl)ccc(F)c1Cl [Crizotinib] (partner 1 µM)", 1.17],
  ["Cc1cnc(-c2cnc(NCCNc3ccc(C#N)cn3)nc2-c2ccc(Cl)cc2Cl)[nH]1 + CC(=O)Nc1cccc(-n2c(=O)n(C3CC3)c(=O)c3c(Nc4ccc(I)cc4F)n(C)c(=O)c(C)c32)c1 [Trametinib] (partner 0.02 µM)", 0.563],
  ["Cc1cnc(-c2cnc(NCCNc3ccc(C#N)cn3)nc2-c2ccc(Cl)cc2Cl)[nH]1 + C[C@]1(O)C[C@@H](c2nc(-c3ccc4ccc(-c5ccccc5)nc4c3)c3c(N)nccn32)C1 [Linsitinib] (partner 1 µM)", 1.32]
]}
